Molecular target: Adenosine receptor A1 (Homo sapiens) (UniProt P30542)
Sequence (whole entry): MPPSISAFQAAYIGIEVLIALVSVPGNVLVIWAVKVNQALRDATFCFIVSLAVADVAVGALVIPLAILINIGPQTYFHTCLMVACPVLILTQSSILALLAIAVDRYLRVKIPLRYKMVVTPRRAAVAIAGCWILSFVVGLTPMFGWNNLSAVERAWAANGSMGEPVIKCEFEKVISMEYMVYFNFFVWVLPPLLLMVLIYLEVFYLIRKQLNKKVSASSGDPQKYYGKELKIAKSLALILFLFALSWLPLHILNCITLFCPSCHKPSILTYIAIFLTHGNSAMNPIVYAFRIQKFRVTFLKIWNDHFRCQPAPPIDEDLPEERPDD
Experiment: Displacement of [3H]DPCPX from human adenosine A1 receptor expressed in CHO cell membranes assessed as kinetic rate index by measuring ratio of binding at earlier and later time points by competition association assay
Endpoint: Ratio

Example molecules with recorded Ratio:
Molecule	Ratio
COc1ccc(-c2c(C#N)c(N)nc(SCc3csc(-c4ccc(I)cc4)n3)c2C#N)cc1	2.07
COc1ccc(-c2c(C#N)c(N)nc(SCc3csc(-c4ccccn4)n3)c2C#N)cc1	1.08
COc1ccc(-c2c(C#N)c(N)nc(SCc3csc(-c4ccc(C)cc4)n3)c2C#N)cc1	1.25
N#Cc1c(N)nc(SCc2csc(-c3ccc(Cl)cc3)n2)c(C#N)c1-c1ccc(OCCO)cc1 [CAPADENOSON]	1.42
N#Cc1c(N)nc(SCc2csc(-c3ccc(Cl)cc3)n2)c(C#N)c1-c1ccc2c(c1)OCO2	2

[I] COc1ccc(-c2c(C#N)c(N)nc(SCc3csc(-c4ccccc4Cl)n3)c2C#N)cc1
[II] COc1ccc(-c2c(C#N)c(N)nc(SCc3csc(-c4ccc(Cl)cc4)n3)c2C#N)cc1
Prompt: Endpoint returns whichever of I and II has the numerically higher Ratio. Record your answer as the label of the chosen record.
Response: II

[1] COc1ccc(-c2c(C#N)c(N)nc(SCc3nc(-c4ccc(Cl)cc4)sc3Cl)c2C#N)cc1
[2] COc1ccc(-c2nc(CSc3nc(N)c(C#N)c(-c4ccc(OC)cc4)c3C#N)cs2)cc1
Prompt: Could you determine which record has the numerically smaller Ratio? Candidates: 1 and 2 Record your answer as the label of the chosen record.
Response: 2

[a] COc1ccc(-c2c(C#N)c(N)nc(SCc3csc(-c4cccc(Cl)c4)n3)c2C#N)cc1
[b] COc1ccc(-c2c(C#N)c(N)nc(SCc3csc(N4CCOCC4)n3)c2C#N)cc1
Prompt: Could you determine which record has the numerically smaller Ratio? Candidates: a and b Record your answer as the label of the chosen record.
Response: b

[A] COc1ccc(-c2c(C#N)c(N)nc(SCc3csc(-c4ccc(Br)cn4)n3)c2C#N)cc1
[B] COc1ccc(-c2c(C#N)c(N)nc(SCc3cscn3)c2C#N)cc1
Prompt: Endpoint returns whichever of A and B has the numerically higher Ratio. Record your answer as the label of the chosen record.
Response: A

[P] COc1ccc(-c2c(C#N)c(N)nc(SCc3csc(-c4ccc(F)cc4)n3)c2C#N)cc1
[Q] COc1ccc(-c2c(C#N)c(N)nc(SCc3csc(-c4ccc(Cl)c(Cl)c4)n3)c2C#N)cc1
Prompt: Endpoint returns whichever of P and Q has the numerically higher Ratio. Record your answer as the label of the chosen record.
Response: Q
(Q: 2.35, P: 1.56)
